# study-target: AChE (Electrophorus electricus, UniProt O42275)
# Construct: purchased Sigma-Aldrich, Hamburg, Germany
# Sequence (O42275 24-633): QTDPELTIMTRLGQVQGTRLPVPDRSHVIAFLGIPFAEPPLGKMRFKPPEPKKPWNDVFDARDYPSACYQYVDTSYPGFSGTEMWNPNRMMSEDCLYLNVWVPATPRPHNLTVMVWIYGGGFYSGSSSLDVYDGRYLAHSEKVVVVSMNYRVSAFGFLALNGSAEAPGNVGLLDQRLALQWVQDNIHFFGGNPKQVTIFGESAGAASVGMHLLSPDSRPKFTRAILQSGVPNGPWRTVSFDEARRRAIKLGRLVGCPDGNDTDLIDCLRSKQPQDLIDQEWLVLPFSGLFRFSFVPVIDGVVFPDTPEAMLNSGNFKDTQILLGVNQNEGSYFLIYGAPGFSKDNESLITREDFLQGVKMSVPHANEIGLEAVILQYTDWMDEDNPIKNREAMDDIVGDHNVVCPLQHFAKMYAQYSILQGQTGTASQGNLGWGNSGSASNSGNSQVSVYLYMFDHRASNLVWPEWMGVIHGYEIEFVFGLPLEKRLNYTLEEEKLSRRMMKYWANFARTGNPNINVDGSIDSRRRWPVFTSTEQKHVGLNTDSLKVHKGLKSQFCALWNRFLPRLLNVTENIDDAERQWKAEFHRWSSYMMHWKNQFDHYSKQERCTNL
# protocol-details: biochemical
# Format: biochemical
# condition-set: 200 µM compound
For each entry below, report its inhibition at 200 µM value.
One number for each entry, in %.

Solved entries:
Q: Record Cc1ccc(C)n1-c1ccc(C(=O)O)cc1O [EM-DC-17] : what is its inhibition at 200 µM with AChE (Electrophorus electricus, UniProt O42275)?
Result: 0

Q: Record Cc1cc(-n2c(C)ccc2C)c2ccccc2n1 [EM-DC-13] : what is its inhibition at 200 µM with AChE (Electrophorus electricus, UniProt O42275)?
Result: 91.2

Now let's try a different one.
Q: Record Cc1ccc(C)n1C(CS)C(=O)O (stereo not drawn) [EM-DC-15] : what is its inhibition at 200 µM with AChE (Electrophorus electricus, UniProt O42275)?
Result: 63.9

----------
# study-target: recombinant human MAO-A (hMAOA) (Homo sapiens, UniProt P21397)
# protocol-details: MAO-A inhibition, fluorometric Amplex UltraRed assay
# Assay type: biochemical
# condition-set: 1 µM compound; read-out: Inhibition Activity 1 µM MAO-A
outcome-measure: inhibition at 1 µM (%)
Numbers only, in %.

Solved entries:
Q: Using the record for Cc1ccc(C)n1-c1ccc(O)cc1 , report its inhibition at 1 µM.
Result: 55

Q: Using the record for Cc1ccc(C)n1-c1ccc(CC(=O)O)cc1 , report its inhibition at 1 µM.
Result: 99

Q: Using the record for Cc1ccc(C)n1C(CO)C(=O)O (centres unmarked) , report its inhibition at 1 µM.
Result: 99

Q: Using the record for COc1ccc(C)cc1-n1c(C)ccc1C , report its inhibition at 1 µM.
Result: 98

Q: Using the record for Cc1ccc(C)n1C(CS)C(=O)O (centres unmarked) , report its inhibition at 1 µM.
Result: 70

Lab note: each compound below needs its inhibition at 1 µM filled in.
1. CCC(C)Cn1c(C)ccc1C (centres unmarked)
2. Cc1ccc(C)n1-c1ccncc1
3. Cc1ccc(C)n1CCc1ccc(O)cc1
4. Cc1ccc(C)n1C(C)(C)CO
5. Cc1ccc(C)n1-c1ccc2c(c1)OCO2
6. Cc1ccc(C)n1CC(O)c1ccc(O)cc1 (centres unmarked)
7. Cc1ccc(C)n1CC(C)c1ccc(O)cc1 (centres unmarked)

Result:
[97, 70, 98, 75, 97, 99, 97]

Lab note: each compound below needs its inhibition at 1 µM filled in.
1. Cc1ccc(C)n1C(Cc1ccc(O)c(O)c1)C(=O)O (centres unmarked)
2. Cc1ccc(C)n1-c1ccc(C(=O)O)cc1O

Result:
98
99

----------
# study-target: BChE (Equus caballus, UniProt P81908)
# Construct: purchased Sigma-Aldrich, Hamburg, Germany; host or cells: equine serum
# Sequence (P81908 whole entry): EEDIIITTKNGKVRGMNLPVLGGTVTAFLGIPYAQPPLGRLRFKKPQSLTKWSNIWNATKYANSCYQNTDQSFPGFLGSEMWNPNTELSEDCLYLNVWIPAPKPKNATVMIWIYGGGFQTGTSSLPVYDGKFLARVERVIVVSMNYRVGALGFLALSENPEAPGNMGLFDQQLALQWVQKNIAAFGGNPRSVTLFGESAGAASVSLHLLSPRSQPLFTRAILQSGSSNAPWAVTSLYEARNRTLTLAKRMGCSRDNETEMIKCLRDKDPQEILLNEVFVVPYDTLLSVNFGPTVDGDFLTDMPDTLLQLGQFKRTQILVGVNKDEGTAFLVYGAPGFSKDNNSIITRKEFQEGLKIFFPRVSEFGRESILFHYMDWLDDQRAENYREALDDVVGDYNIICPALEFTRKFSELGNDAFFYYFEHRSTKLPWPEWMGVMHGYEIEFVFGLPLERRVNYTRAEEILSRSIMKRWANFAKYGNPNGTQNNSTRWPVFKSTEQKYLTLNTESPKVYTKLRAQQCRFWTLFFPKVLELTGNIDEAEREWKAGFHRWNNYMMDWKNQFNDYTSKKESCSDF
# protocol-details: biochemical
# condition-set: BChE IC50, means ± SD of three experiments
pIC50: −log10 of the molar value.
outcome-measure: pIC50

Q: Using the record for Cc1ccc(C)n1C(Cc1cnc[nH]1)C(=O)O (stereo not shown) [EM-DC-19] , report its pIC50.
Result: < 3.70

----------
For each entry below, report its inhibition at 1 µM value.
# study-target: recombinant human MAO-B (hMAOB) (Homo sapiens)
# Sequence (P27338 whole entry): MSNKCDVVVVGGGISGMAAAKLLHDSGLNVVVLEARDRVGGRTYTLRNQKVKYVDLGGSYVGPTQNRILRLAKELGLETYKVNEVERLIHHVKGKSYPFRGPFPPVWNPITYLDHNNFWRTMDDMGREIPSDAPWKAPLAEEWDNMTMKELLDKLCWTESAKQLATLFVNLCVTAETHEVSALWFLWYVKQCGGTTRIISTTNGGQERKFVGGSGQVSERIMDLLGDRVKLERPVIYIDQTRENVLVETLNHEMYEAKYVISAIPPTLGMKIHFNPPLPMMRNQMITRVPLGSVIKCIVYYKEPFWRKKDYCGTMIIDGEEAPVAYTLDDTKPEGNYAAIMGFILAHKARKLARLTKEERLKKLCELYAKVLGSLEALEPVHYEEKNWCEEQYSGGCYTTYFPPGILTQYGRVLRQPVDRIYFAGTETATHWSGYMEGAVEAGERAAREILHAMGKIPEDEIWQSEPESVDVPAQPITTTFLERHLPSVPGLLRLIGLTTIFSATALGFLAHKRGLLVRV
# protocol-details: biochemical
# Assay type: biochemical
# condition-set: 1 µM compound
Numbers only, in %.

Q: Record Cc1ccc(C)n1-c1ccc(C(=O)NCC(=O)O)cc1 : what is its inhibition at 1 µM with recombinant human MAO-B (hMAOB) (Homo sapiens)?
Result: 80

Lab note: each compound below needs its inhibition at 1 µM filled in.
1. CCC(C(=O)O)n1c(C)ccc1C (stereo not shown)
2. Cc1ccc(C)n1C(CO)C(=O)O (stereo not shown)

Result:
99
99

Lab note: each compound below needs its inhibition at 1 µM filled in.
1. Cc1cc(-n2c(C)ccc2C)c2ccccc2n1
2. Cc1ccc(C)n1-c1ccncc1
3. Cc1ccc(C)n1-c1ccc(C(=O)O)cc1
4. Cc1ccc(C)n1-c1ccc(O)c(C(=O)O)c1
5. Cc1ccc(C)n1CCN1CCOCC1
6. Cc1ccc(C)n1C(Cc1ccc(O)cc1)C(=O)O (stereo not shown)

Result:
80
70
75
98
80
75

Q: Record Cc1ccc(C)n1C(C)(C)CO : what is its inhibition at 1 µM with recombinant human MAO-B (hMAOB) (Homo sapiens)?
Result: 75

----------
For each entry below, report its inhibition at 1 µM value.
# study-target: recombinant human MAO-A (hMAOA) (Homo sapiens, UniProt P21397)
# Sequence (P21397 1-527): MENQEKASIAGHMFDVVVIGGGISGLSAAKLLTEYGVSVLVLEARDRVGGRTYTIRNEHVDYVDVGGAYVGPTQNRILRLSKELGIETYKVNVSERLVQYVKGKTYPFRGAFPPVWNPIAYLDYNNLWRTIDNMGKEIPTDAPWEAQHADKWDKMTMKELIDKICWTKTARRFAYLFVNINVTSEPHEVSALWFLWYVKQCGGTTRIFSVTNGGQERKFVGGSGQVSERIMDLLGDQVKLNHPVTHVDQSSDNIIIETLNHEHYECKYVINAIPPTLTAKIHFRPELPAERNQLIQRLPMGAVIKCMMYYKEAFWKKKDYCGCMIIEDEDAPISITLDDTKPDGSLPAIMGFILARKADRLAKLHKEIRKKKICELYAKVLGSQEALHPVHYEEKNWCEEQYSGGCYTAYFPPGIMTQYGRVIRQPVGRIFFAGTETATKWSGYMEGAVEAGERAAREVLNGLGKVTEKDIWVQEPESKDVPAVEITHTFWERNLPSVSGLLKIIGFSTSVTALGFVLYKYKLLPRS
# protocol-details: MAO-A inhibition, fluorometric Amplex UltraRed assay
# Assay type: biochemical
# condition-set: 1 µM compound; read-out: Inhibition Activity 1 µM MAO-A
Numbers only, in %.

Solved entries:
Q: Using the record for Cc1cc(-n2c(C)ccc2C)c2ccccc2n1 [EM-DC-13] , report its inhibition at 1 µM.
Result: 80

Q: Using the record for Cc1ccc(C)n1C1CCN(Cc2ccccc2)CC1 [EM-DC-25] , report its inhibition at 1 µM.
Result: 60

Q: Using the record for Cc1ccc(C)n1-c1ccc(C(=O)NCC(=O)O)cc1 [EM-DC-24] , report its inhibition at 1 µM.
Result: 80

Q: Using the record for Cc1ccc(C)n1-c1ccccc1Br [EM-DC-3] , report its inhibition at 1 µM.
Result: 70

Q: Using the record for Cc1ccc(C)n1-c1ccc(Br)cc1 [EM-DC-4] , report its inhibition at 1 µM.
Result: 60

Now let's try a different one.
Q: Using the record for Cc1ccc(C)n1-c1ccc(O)c(C(=O)O)c1 [EM-DC-18] , report its inhibition at 1 µM.
Result: 98

----------
For each entry below, report its IC50 value.
# study-target: BChE (Equus caballus)
# Construct: purchased Sigma-Aldrich, Hamburg, Germany; host or cells: equine serum
# protocol-details: biochemical
# condition-set: means ± SD of three experiments; read-out: BChE IC50

Solved entries:
Q: Using the record for Cc1ccc(C)n1-c1ccc(C(=O)O)cc1 , report its IC50.
Result: 158 µM

Q: Using the record for Cc1ccc(C)n1CCc1ccc(O)cc1 , report its IC50.
Result: 69.5 µM

Q: Using the record for Cc1ccc(C)n1C(CS)C(=O)O (centres unmarked) , report its IC50.
Result: > 200 µM

Lab note: each compound below needs its IC50 filled in.
1. Cc1ccc(C)n1C(CO)C(=O)O (centres unmarked)
2. Cc1ccc(C)n1-c1ccc2c(c1)OCO2
3. Cc1ccc(C)n1-c1ccc(C(=O)NCC(=O)O)cc1
4. Cc1ccc(C)n1CCc1ccccc1
5. Cc1ccc(C)n1-c1ccc(C(=O)O)cc1O
6. Cc1cc(-n2c(C)ccc2C)c2ccccc2n1
7. Cc1ccc(C)n1C1CCN(Cc2ccccc2)CC1
8. Cc1ccc(C)n1CC(C)c1ccc(O)cc1 (centres unmarked)

Result:
["> 200 µM", "> 200 µM", "> 200 µM", "> 200 µM", "> 200 µM", "10.5 µM", "104 µM", "> 200 µM"]

----------
For each entry below, report its inhibition at 200 µM value.
# study-target: BChE (Equus caballus, UniProt P81908)
# Construct: purchased Sigma-Aldrich, Hamburg, Germany; host or cells: equine serum
# protocol-details: biochemical
# condition-set: read-out: Inhibition Activity 200 µM BChE
One number for each entry, in %.

Solved entries:
Q: Using the record for Cc1ccc(C)n1-c1ccc(C(=O)O)cc1 [EM-DC-2] , report its inhibition at 200 µM.
Result: 57.2

Q: Using the record for Cc1ccc(C)n1C(CS)C(=O)O (centres unmarked) [EM-DC-15] , report its inhibition at 200 µM.
Result: 19.1

Q: Using the record for Cc1ccc(C)n1CCc1ccccc1 [EM-DC-7] , report its inhibition at 200 µM.
Result: 43.9

Q: Using the record for Cc1ccc(C)n1C(Cc1ccc(O)c(O)c1)C(=O)O (centres unmarked) [EM-DC-23] , report its inhibition at 200 µM.
Result: 0

Q: Using the record for Cc1ccc(C)n1CC(C)c1ccc(O)cc1 (centres unmarked) [EM-DC-11] , report its inhibition at 200 µM.
Result: 30.6

Q: Using the record for Cc1ccc(C)n1C1CCN(Cc2ccccc2)CC1 [EM-DC-25] , report its inhibition at 200 µM.
Result: 69.8

Q: Using the record for Cc1ccc(C)n1CC(O)c1ccc(O)cc1 (centres unmarked) [EM-DC-10] , report its inhibition at 200 µM.
Result: 87.2

Now let's try a different one.
Q: Using the record for CCC(C)Cn1c(C)ccc1C (centres unmarked) [EM-DC-26] , report its inhibition at 200 µM.
Result: 68.2
